B1: HDV Ribozyme (parent)
chain: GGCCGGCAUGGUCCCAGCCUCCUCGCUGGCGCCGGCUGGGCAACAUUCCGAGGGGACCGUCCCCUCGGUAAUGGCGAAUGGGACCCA

Variants of: B1
Assay: self-cleavage, relative activity (ratio to wild type); higher = more cleavage; co-transcriptional
Recorded self-cleavage determines the label; the label ranges are low group (below 0.2), middle group (0.2 to below 0.6), high group (0.6 or more)

A56G G82C    low group
U60A A87U    high group

Band for the recorded self-cleavage of C21U G68A ?
middle group

Band for the recorded self-cleavage of C4U A71G ?
high group

Band for the recorded self-cleavage of G40U C64A ?
middle group

Band for the recorded self-cleavage of U47G C64G ?
middle group

Entry source: the RNAGym collection of RNA variant scans (doi:10.7554/elife.80360)
